- tested_system: T1, recombinant human LILRB2 protein (human, UniProt Q8N423 22-460, limits assumed)
- T1 construct: also called recombinant LILRB2 protein
- T1 sequence (Q8N423 22-460 limits assumed): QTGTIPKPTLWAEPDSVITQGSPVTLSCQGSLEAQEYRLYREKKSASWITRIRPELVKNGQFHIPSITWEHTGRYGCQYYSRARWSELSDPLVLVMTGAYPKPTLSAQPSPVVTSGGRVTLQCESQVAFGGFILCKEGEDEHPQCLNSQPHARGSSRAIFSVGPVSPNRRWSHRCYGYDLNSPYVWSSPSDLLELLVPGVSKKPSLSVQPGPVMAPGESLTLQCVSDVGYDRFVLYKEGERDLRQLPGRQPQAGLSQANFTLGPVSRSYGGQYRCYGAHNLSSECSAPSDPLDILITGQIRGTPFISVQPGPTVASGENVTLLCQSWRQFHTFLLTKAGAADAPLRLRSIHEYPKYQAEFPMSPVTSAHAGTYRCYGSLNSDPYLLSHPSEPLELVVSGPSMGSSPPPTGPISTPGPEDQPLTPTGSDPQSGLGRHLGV
- procedure_summary: ELISA, coated recombinant human LILRB2
- Design: unit not given here
- Method: This affinity maturation library was screened against human LILRB2 to identify antibodies having high binding affinity to LILRB2. Briefly, an ELISA plate was coated with 0.1 ug/well recombinant human LILRB2 protein. Serial diluted maturated h#2E1 antibodies were incubated in the LILRB2 coated plate for 2 hrs. The plate was washed and a secondary HRP-labeled anti-human IgG was then added to each well. […]
measured_parameter: Bmax

INSERT INTO measurements (binder, measured_parameter, readout_value) VALUES
  ('Antibody 2E1_GC8 (antibody, V domains shown) VH: EVQLVESGGGLVQPGGSLRLSCAVSGYSITSGYYWWWIRQAPGKGLEWVAYISYDGNNNYNPSLKNRFTISRDTSKNTFYLQMNSLRAEDTAVYYCAREESTMITTAWFAYWGQGTLVTVSS VL: DIQMTQSPSSLSASVGDRVTITCRASENIYSNQAWYQQKPGKAPKLLIYGATNRASGVPSRFSGSGSGTDYTLTISSLQPEDFATYYCQHFWDTPYTFGQGTKVEIK', 'Bmax', 1.44),
  ('Antibody 2E1_GF8 (antibody, V domains shown) VH: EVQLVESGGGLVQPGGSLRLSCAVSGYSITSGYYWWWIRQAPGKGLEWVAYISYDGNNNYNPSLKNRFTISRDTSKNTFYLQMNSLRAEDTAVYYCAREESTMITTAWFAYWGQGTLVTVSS VL: DIQMTQSPSSLSASVGDRVTITCRGSENIYSNLAWYQQKPGKAPKLLIYGATNLASGVPSRFSGSGSGTDYTLTISSLQPEDFATYYCQHFWDTPYTFGQGTKVEIK', 'Bmax', 1.56),
  ('Antibody 2E1_GH4 (antibody, V domains shown) VH: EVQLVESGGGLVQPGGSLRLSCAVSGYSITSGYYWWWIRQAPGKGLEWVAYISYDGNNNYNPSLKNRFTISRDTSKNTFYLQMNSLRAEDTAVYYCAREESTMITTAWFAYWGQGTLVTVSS VL: DIQMTQSPSSLSASVGDRVTITCRASENIYSNLAWYQQKPGKAPKLLIYGATNFASGVPSRFSGSGSGTDYTLTISSLQPEDFATYYCQHFWDTPYTFGQGTKVEIK', 'Bmax', 1.51);
